I'd be grateful if you could share measured fraction unbound at 10 µM for these entries.
experimentDescription: Fraction unbound in human plasma at 10 uM by equilibrium dialysis method
Type: ADME, cell-free

// sample `CN[C@@H](C)C(=O)N[C@H](C(=O)N1CSC2(CC2)[C@H]1C(=O)N[C@H]1c2ccccc2C[C@H]1OCC#CC#CCO[C@@H]1Cc2ccccc2[C@@H]1NC(=O)[C@H]1N(C(=O)[C@@H](NC(=O)[C@H](C)NC)C2CCCCC2)CSC12CC2)C1CCCCC1` , its fraction unbound at 10 µM was < 0.01

// sample `CN[C@@H](C)C(=O)N[C@H](C(=O)N1CC=C[C@H]1C(=O)N[C@H]1c2ccccc2C[C@H]1OCC#CC#CCO[C@@H]1Cc2ccccc2[C@@H]1NC(=O)[C@@H]1C=CCN1C(=O)[C@@H](NC(=O)[C@H](C)NC)C1CCCCC1)C1CCCCC1` , its fraction unbound at 10 µM was 0.029

// sample `CN[C@@H](C)C(=O)N[C@H](C(=O)N1CSC[C@H]1C(=O)N[C@H]1c2ccccc2C[C@H]1OCC#CC#CCO[C@@H]1Cc2ccccc2[C@@H]1NC(=O)[C@@H]1CSCN1C(=O)[C@@H](NC(=O)[C@H](C)NC)C(C)(C)C)C(C)(C)C` , its fraction unbound at 10 µM was 0.107

====

experimentDescription: Total plasma clearance in Han Wistar rat at 0.8 mg/kg, iv by LC-MS/MS analysis
Assay type: ADME, organism-based
Set-up: dose 0.8 mg/kg, route intravenous
metric: clearance

// sample `CN[C@@H](C)C(=O)N[C@H](C(=O)N1CCC[C@H]1C(=O)N[C@H]1c2ccccc2C[C@H]1OCCCCCCO[C@@H]1Cc2ccccc2[C@@H]1NC(=O)[C@@H]1CCCN1C(=O)[C@@H](NC(=O)[C@H](C)NC)C1CCCCC1)C1CCCCC1` , its clearance was 45 mL/min/kg

====

experimentDescription: Fraction unbound in human plasma at 10 uM by equilibrium dialysis method
Format: ADME, cell-free
metric: fraction unbound at 10 µM
// no unit string in output, number only

// sample `CN[C@@H](C)C(=O)N[C@H](C(=O)N1CSC[C@H]1C(=O)N[C@H]1c2ccccc2C[C@H]1OCC#CC#CCO[C@@H]1Cc2ccccc2[C@@H]1NC(=O)[C@@H]1CSCN1C(=O)[C@@H](NC(=O)[C@H](C)NC)C1CCCCC1)C1CCCCC1` , its fraction unbound at 10 µM was 0.011

====

I'd be grateful if you could share measured AUC for these entries.
experimentDescription: AUC in Han Wistar rat at 0.2 mg/kg, iv by LC-MS/MS analysis
Assay type: ADME, organism-based
Set-up: dose 0.2 mg/kg, route intravenous
experimentalContext: plasma
In your response, put the unit directly after the numeric value.

// sample `CN[C@@H](C)C(=O)N[C@H](C(=O)N1CCC[C@H]1C(=O)N[C@@H]1CCN(CC#CC#CCN2CC[C@@H](NC(=O)[C@@H]3CCCN3C(=O)[C@@H](NC(=O)[C@H](C)NC)C3CCCCC3)c3ccccc32)c2ccccc21)C1CCCCC1` , its AUC was 40 ng·h/mL

// sample `CN[C@@H](C)C(=O)N[C@H](C(=O)N1CCC[C@H]1C(=O)N[C@H]1c2ccccc2C[C@H]1OCC#CC#CCO[C@@H]1Cc2ccccc2[C@@H]1NC(=O)[C@@H]1CCCN1C(=O)[C@@H](NC(=O)[C@H](C)NC)C(C)C)C(C)C` , its AUC was 76 ng·h/mL

// sample `CN[C@@H](C)C(=O)N[C@H](C(=O)N1CCC[C@H]1C(=O)N[C@H]1c2ccccc2CC[C@H]1OCC#CC#CCO[C@@H]1CCc2ccccc2[C@@H]1NC(=O)[C@@H]1CCCN1C(=O)[C@@H](NC(=O)[C@H](C)NC)C(C)(C)C)C(C)(C)C` , its AUC was 30 ng·h/mL

Origin of the recorded values: ChEMBL document CHEMBL3108710
